# System: MT4
# EXPERIMENTAL_DETAILS: Anti-HIV-1 activity evaluated in vitro on MT-4 cells
# Format: functional, cell-based
# COND: Homo sapiens
MEASURE_NAME: IC50

A selection of reference data follows.
MOLECULE	IC50
CCCCCCCCCCCCCCNC(=O)C(CO[C@@H]1O[C@H](CO)[C@H](O)[C@H](O)[C@H]1O)NC(=O)CCC(=O)O (some centres not stated)	> 100 µM
O=C(O)CCCCCCCCCCC(=O)N(CCCCCCCC(F)(F)C(F)(F)C(F)(F)C(F)(F)C(F)(F)C(F)(F)C(F)(F)C(F)(F)F)CCO[C@@H]1O[C@H](CO)[C@H](O)[C@H](O)[C@H]1O	> 18 µM
CCCCCCCCCCCCCC(=O)NC(CO[C@@H]1O[C@H](CO)[C@H](O)[C@H](O)[C@H]1O)C(=O)NCCOS(=O)(=O)O (some centres not stated)	20 µM
CCCCCCCCCCCCCC(=O)NCC(NC(=O)CCCCCCCCCCCCC)C(=O)NCCN(CCNC(=O)C(O)C(O)C(O[C@@H]1O[C@H](CO)[C@H](O)[C@H](O)C1O)C(O)CO)CCNC(=O)C(O)C(O)C(O[C@@H]1O[C@H](CO)[C@H](O)[C@H](O)[C@H]1O)C(O)CO (some centres not stated)	33 µM
CCCCCCCCCCCCCC(=O)NC(CO[C@@H]1O[C@H](CO)[C@H](O)[C@H](O)[C@H]1O)C(=O)NCCO (some centres not stated)	> 100 µM
CCCCCCCCCCCCCCNC(=O)C(CO[C@@H]1O[C@H](CO)[C@H](O)[C@H](O)[C@H]1O)NC(=O)CCCCCCCCCCC(=O)O (some centres not stated)	> 100 µM
NC(CO[C@@H]1O[C@H](CO)[C@H](O)[C@H](O)[C@H]1O)C(=O)NCCCCCCCCCCCC(=O)O (some centres not stated)	> 100 µM
O=C(O)CCCCCCCCCCCNC(=O)C(CO[C@@H]1O[C@H](CO)[C@H](O)[C@H](O)[C@H]1O)NC(=O)CCC(=O)O (some centres not stated)	> 100 µM
CCCCCCCCCCCCCC(=O)NC(CO[C@@H]1O[C@H](CO)[C@H](O)[C@H](O)[C@H]1O)C(=O)O (some centres not stated)	> 100 µM
CCCCCCCCCCCCCCNC(=O)C(CO[C@@H]1O[C@H](CO)[C@H](O)[C@H](O)[C@H]1O)NC(=O)CCC(=O)NCCS(=O)(=O)O (some centres not stated)	> 100 µM

For each of the molecules below, note its IC50.
1. CCCCCCCCCCCCCCNC(=O)C(CO[C@@H]1O[C@H](CO)[C@H](O)[C@H](O)[C@H]1O)NP(=O)(O)OC (some centres not stated)
2. CCCCCCCCCCCCCC(=O)NCC(NC(=O)CCCCCCCCCCCCC)C(=O)NCCNC(=O)C(O)C(O)C(O[C@@H]1O[C@H](CO)[C@H](O)[C@H](O)[C@H]1O)C(O)CO (some centres not stated)

Result block:
> 100 µM
> 100 µM
